species on record: Rattus norvegicus; assay: Inhibition of mitochondrial protein synthesis (MPS) in rat heart mitochondria; type: functional
property-label: IC50

- CC(=O)NC[C@H]1CN(c2ccc(/C=C(\F)c3cccc(C#N)c3)c(F)c2)C(=O)O1: > 300 µM
- CC(=O)NC[C@H]1CN(c2ccc(/C=C(\Br)c3ccccc3)c(F)c2)C(=O)O1: > 300 µM

Task item: Returns the measured IC50 for the input compound. Input: `CC(=O)NC[C@H]1CN(c2ccc(/C=C(\F)c3cncc(C#N)c3)c(F)c2)C(=O)O1`
Reply: < 0.1 µM

Origin of values: ChEMBL document CHEMBL1134857
